assayRemarks: yeast display, Sf9 membrane polyspecificity reagent, FACS + sequencing; frameworks hold sequencing errors
measurementName: polyreactivity (PSR sort gate)

Field: example entries. Status: answers known.
>  <residueCodes>
QVQLVESGGGLVQAGGSLRLSCAASGSIFVLYAMGWYRQAPGKERELVAAINYDGASTYYADSVKGRFTISRDNAKNTVYLQMNSLKREDTAVYYCAKRFGPAYFRLYDYWGQGTQVTVSS

>  <polyreactivity (PSR sort gate)>
low polyreactivity

$$$$
>  <residueCodes>
QVQLVESGGGLVQAGGSLRLSCAASARIFTAYAMGWYRQAPGKERELVASISTSGGRTYYADSVKGRFTISRDNAKNTVYLQINSLKPEDTAVYYFAADFESYSRYYDGYDYWGQGTQVTVSS

>  <polyreactivity (PSR sort gate)>
high polyreactivity

$$$$
>  <residueCodes>
QLQLVESGAGLVQAGGSLRLSCAASGNIFRKNAMGRSRQAPGKERELVAAISRRGGNSYYADSVKGRFTISRDNAKNTVYLQMNSLKPEDTAVYYCAADWSPTAASDYWGQGTQVTVSS

>  <polyreactivity (PSR sort gate)>
high polyreactivity

$$$$
>  <residueCodes>
QVQLVESGGGLVQAGGSLRLSCAASGRIFYYYAMGWYRQAPGKERELVAAITRRGGSTYYADSVKGRFTISRDNAKNTVYLQMNSLKPEDTAVYYCAKPDRTGWLDGDYWGQGTQVTVSS

>  <polyreactivity (PSR sort gate)>
low polyreactivity

$$$$

Lab note: next sequence to report on.
polyreactivity (PSR sort gate) for QVQLVDSGGGLVQAGGSLRLSCAASGRTYTYYAMGWYRQAPGKERELVAAISKSGGSTYYADSVKGRFTISRDNAKNTVYLQMNSLKPEDTAVYYFAKVYRYSSLYYYWGQGTQVTVSS is low polyreactivity

----------
assayRemarks: yeast display, Sf9 membrane polyspecificity reagent, FACS + sequencing; frameworks hold sequencing errors
measurementName: polyreactivity (PSR sort gate)

>  <residueCodes>
QVQLVESGGGLVQAGGSLRLSCAASGSIFYKNAMGWYRQAPGKERELVAVISTSGSTYYADSVKGRFTISRDNAKNTVYLQMKSLKPEDTAVYYCATKVRRWYSARSPNVRFDYWGQGTQVTVSS

>  <polyreactivity (PSR sort gate)>
high polyreactivity

$$$$
>  <residueCodes>
QVQLVESVGGLVQEGGSLRLSSAATGYTFDVYAMGWSRQAPGKERELVAAISTRGTRTYYADSEKGRFTISRDNAKNTVYLQMNSLKPEDTAVYYCAAYVYDGETESRFDYWGQGTQVTVSS

>  <polyreactivity (PSR sort gate)>
high polyreactivity

$$$$
>  <residueCodes>
QVQLVESGGGLVQAGGSLRLSCAASGSIFYKYAMGWYRQAPGKERELVASITSGGITNYADSVKGRFTISRDNAKNTVFLQMNSLKPEDTAVYYCNAANPYRRVGSFTYKYDYWGQGTQVTVSS

>  <polyreactivity (PSR sort gate)>
low polyreactivity

$$$$
>  <residueCodes>
QVQLQESGGGLVQAGGSLRPRCAAGGTIFVSVNMGWYRHAPGEELEFVASITQGATTNYADSLIGRFTISRDNAKNTVYLQMNCQNQEDTAVYYCAVHESGGITFTYWGQGTQVTVSS

>  <polyreactivity (PSR sort gate)>
high polyreactivity

$$$$
>  <residueCodes>
QVQLVESGGGLVQAGGSLRLSCAASGFTFKLYAMGWYRQAPGKERELVAAISSSGGRTYYADSVKGRFTISRDNAKNTVYLQMNSLKPEDTAVYYCNAVRTVNDYHYDYWGQGTQVTVSS

>  <polyreactivity (PSR sort gate)>
high polyreactivity

$$$$
>  <residueCodes>
QVQLVESGGGLVQAGGSLRLSCAASGSTFAYYAMGWYRQAPGKERELVAAISWSGGSTYYADSVKGRFTISRDNAKNTVYLQMNSLKPEDTAVYYCNKRNVLDYDYWGQGTQVTVSS

>  <polyreactivity (PSR sort gate)>
low polyreactivity

$$$$
>  <residueCodes>
QVQLVESGGGLVQAGGSLRLSCAASGRIFFTNAMGWYSQAPGKEREFVAAISKSGARTYYADSVKGRFTISRDNAKNTVYLQMISLKPEDTAVYYCAADVSVYGYYYWGQGTQVTVSS

>  <polyreactivity (PSR sort gate)>
high polyreactivity

$$$$
>  <residueCodes>
QVQLVESGGGLVQAGGSLRLSCAASGSIFYLNAMGWYRQAPGQERELVASISNGGSTNYADSVKGRFTISRDNAKHTVYLQMNSLKPEVTAVYYCAADYVVSAFDYWGQGTQLTVSS

>  <polyreactivity (PSR sort gate)>
low polyreactivity

$$$$

Lab note: next sequence to report on.
polyreactivity (PSR sort gate) for QVQLVESGGGLVQAGGSLRLSCAASGNTFYTNVMGWYRQAPGKERELVAAITQSGARTYYADSVKGRFTISRDNAKNTVYLQMNSLKPEDTAVYYCASEHYFYRDYPYEFWGQGTQVTVSS is high polyreactivity

----------
assayRemarks: yeast display, Sf9 membrane polyspecificity reagent, FACS + sequencing; frameworks hold sequencing errors

>  <residueCodes>
QVQLVESGGGLVQAGCSLRLSCAASGRTFYYNAMGWYRQAPGKERELVAAITRSGSSTYYADSVKGRFTISRDNAKNTVYLQMNSLKPEDTAVYYCAARVGDAYYYWGQGTQVTVSS

>  <polyreactivity (PSR sort gate)>
high polyreactivity

$$$$
>  <residueCodes>
QVQLVESGGGLVQAGGSLRLSCAASGRTFYYNTMGWYRQAPGKERELVATISRIGGSTYYADSVKGRFTISRDNAKNTVYLQMNSLKPEDTAVYYCAAYVAAYPTGYDYWGQGTQVTVSS

>  <polyreactivity (PSR sort gate)>
high polyreactivity

$$$$

----------
assayRemarks: yeast display, Sf9 membrane polyspecificity reagent, FACS + sequencing; frameworks hold sequencing errors
measurementName: polyreactivity (PSR sort gate)

>  <residueCodes>
QVQLVESGGGLVQAGGSLRLSCAASGRTLTIYAMGWYRPAPGKERELVAAINWSGGGTYYADSVKGRFTISRDNAKNTVYLQMNRLKPEDTAVYYCAAGRSFRGSYWYEYWGQGTQVTVSS

>  <measurementName>
polyreactivity (PSR sort gate)

>  <result>
high polyreactivity

$$$$
>  <residueCodes>
QVQLVESGGGLVQAGGSLRLSCADSGRTFGVYTMGWYRQAPGKERELVAAISGSGGSTYYADSVKGRFTISRDNAKNTVYLQMNSLKPEDTAVYYCNADQNVDVFYRYRLYDSWGQGTQVTVSS

>  <measurementName>
polyreactivity (PSR sort gate)

>  <result>
high polyreactivity

$$$$
>  <residueCodes>
QVQLVESWRGLVQEGGSLRLSCAASGRTFYSYAMGWYIQAPGKERELVAAITRRGTSTYYADSVKGRFTISRDNAKNTVYLQMNSLKPEDTAVYYCAARLPGTFSYGYWGQGTQVTVSS

>  <measurementName>
polyreactivity (PSR sort gate)

>  <result>
high polyreactivity

$$$$
>  <residueCodes>
QVQLVESGGGIVQAGGSLRLSCAASGFTFKKYAMGWYRQAPGKERELVAAISRSGGRTYYADSVKGRFTISRDNAKNTVFLQMNSLKPEDTAVYYCNADYYSAAYYYWGQGTQVTVSS

>  <measurementName>
polyreactivity (PSR sort gate)

>  <result>
high polyreactivity

$$$$
>  <residueCodes>
QVQLVDSVGGLVQAGGSLRLSCAASGSTFVYNTMGWYRQEPGKEREMVAAISYRGSTYYADSVKGRFTISRENAKNTVFLQMNSLKPEDNAVYYCNAPRRQYEYDYWGQGTQVTVSS

>  <measurementName>
polyreactivity (PSR sort gate)

>  <result>
high polyreactivity

$$$$
>  <residueCodes>
QVQLVESGGGLVQAGGSLRLSSAASGSNFPTNAMGWYRQAPGKETELVAAITDGGSTNYADSVKGRFTISRDNAKNTVYLQMNSLKPEDTAVYYCAAVGFKTVLPEYDYWGKGTQVTVSS

>  <measurementName>
polyreactivity (PSR sort gate)

>  <result>
low polyreactivity

$$$$

Lab note: next sequence to report on.
polyreactivity (PSR sort gate) for QVQLVESGGGLVQAGGSLRLSCAASGFTFRRYAMGWYRQAPGKERELVARISFNGGSTFYADSVKGRFTISRDNAKNTVYLQMNSLKPEDTAVYYCAAVFGGRSLSRTYGYDYWGQGTQVTVSS is high polyreactivity

----------
assayRemarks: yeast display, Sf9 membrane polyspecificity reagent, FACS + sequencing; frameworks hold sequencing errors
measurementName: polyreactivity (PSR sort gate)

Field: example entries. Status: answers known.
>  <residueCodes>
QVQLVESGGGLVQAGGSLRLSCAASGFTIFYYAMGWYRQAPGKERELVASISWSGGSTYYADSVMGRFTISRENAKNSVYLQMNSLKPEDTAVYYCAADVPFGGDYWGQGTQVTVSS

>  <result>
low polyreactivity

$$$$
>  <residueCodes>
QVQLVESGGGLVQAGGSLRLSCAASGRIFYPYAMGWYRQAPGKERELVAAINWSGDRTYYADSVKGRFTISRDNAKNTVYLQMNSLKPEDTAVYYCAAVYFTRSSGRRYDYWGQGTQVTVSS

>  <result>
high polyreactivity

$$$$
>  <residueCodes>
QVQLVESGGGLVQAGGSLRLSCAASGGTFARYAMGWYRQAPGKERELVAAITRSGGTTYYADSVKGRFTISRDNAKNTVYLQMNSLKPEDTAVYYCAALPIVDYYGYGYWGQGTQVNVSS

>  <result>
high polyreactivity

$$$$
>  <residueCodes>
QVQLVESGGGLVQAGGSLRLSCAASGRIIGQYAMGWYRQAPGKERELVAAITQRGGSTYYADSVKGRFTISRDNAKNTVYLLMNCLKPEDTAVYYCNKRYRFTGIRDPFDYWGQGTQVTVSS

>  <result>
low polyreactivity

$$$$

Lab note: next sequence to report on.
polyreactivity (PSR sort gate) for QVQLVESGGGLVQAGGSLRLSCAASGSTLKYNAMGWYRQAPGKEREFVASITLSACRTYYADSVKGRFTISRDNAKNTVYLQMNSLKPEDTAVYYCAARRYFSYRYDYWGQGTQVTVSS is high polyreactivity
